EXPERIMENTAL CONTEXT: in water, 322.65 K
RECORDED METRIC: solubility (mole fraction)

Requested read-out: solubility (mole fraction). Entry: "COc1cc(Cc2cnc(N)nc2N)cc(OC)c1OC"
7.14e-05

* * *

EXPERIMENTAL CONTEXT: in ethanol, 318.65 K
RECORDED METRIC: solubility (mole fraction)
Give your answer as a number; write no unit.

Requested read-out: solubility (mole fraction). Entry: "COc1cc(Cc2cnc(N)nc2N)cc(OC)c1OC"
0.00226

* * *

EXPERIMENTAL CONTEXT: in acetonitrile, 293.15 K
RECORDED METRIC: solubility (mole fraction)
Give your answer as a number; write no unit.

Requested read-out: solubility (mole fraction). Entry: "COc1cc(Cc2cnc(N)nc2N)cc(OC)c1OC"
0.00035

* * *

EXPERIMENTAL CONTEXT: in ethanol, 293.15 K
RECORDED METRIC: solubility (mole fraction)
Give your answer as a number; write no unit.

Requested read-out: solubility (mole fraction). Entry: "COc1cc(Cc2cnc(N)nc2N)cc(OC)c1OC"
0.00071

* * *

EXPERIMENTAL CONTEXT: in ethyl acetate, 303.45 K
RECORDED METRIC: solubility (mole fraction)
Give your answer as a number; write no unit.

Requested read-out: solubility (mole fraction). Entry: "COc1cc(Cc2cnc(N)nc2N)cc(OC)c1OC"
0.000398

* * *

EXPERIMENTAL CONTEXT: in water, 312.95 K
RECORDED METRIC: solubility (mole fraction)
Give your answer as a number; write no unit.

Requested read-out: solubility (mole fraction). Entry: "COc1cc(Cc2cnc(N)nc2N)cc(OC)c1OC"
4.68e-05

* * *

EXPERIMENTAL CONTEXT: in ethyl acetate, 312.95 K
RECORDED METRIC: solubility (mole fraction)
Give your answer as a number; write no unit.

Requested read-out: solubility (mole fraction). Entry: "COc1cc(Cc2cnc(N)nc2N)cc(OC)c1OC"
0.000606

* * *

EXPERIMENTAL CONTEXT: in ethanol, 322.65 K
RECORDED METRIC: solubility (mole fraction)
Give your answer as a number; write no unit.

Requested read-out: solubility (mole fraction). Entry: "COc1cc(Cc2cnc(N)nc2N)cc(OC)c1OC"
0.00304

* * *

EXPERIMENTAL CONTEXT: in ethyl acetate, 298.45 K
RECORDED METRIC: solubility (mole fraction)
Give your answer as a number; write no unit.

Requested read-out: solubility (mole fraction). Entry: "COc1cc(Cc2cnc(N)nc2N)cc(OC)c1OC"
0.000332

* * *

EXPERIMENTAL CONTEXT: in isopropanol, 303.45 K
RECORDED METRIC: solubility (mole fraction)
Give your answer as a number; write no unit.

Requested read-out: solubility (mole fraction). Entry: "COc1cc(Cc2cnc(N)nc2N)cc(OC)c1OC"
0.000434
